As shown below, each of these compounds has a reported T/C value.
- Tested on: P388 leukemia ip, CD2F1 mice, survival T/C
- TEST DESCRIPTION: NCI In Vivo Anticancer Drug Screen. Data for tumor model P388 Leukemia (intraperitoneal) in CD2F1 (CDF1) mice
- DETAILS: endpoint: median survival time; dose: 200.0 mg/kg/injection; schedule: Q01DX005 (ip); vehicle: saline with Tween-80; higher = longer survival
Toxic doses and inconclusive results are not listed.

1. CC1=C(C)CN(c2ccnc3cc(Cl)ccc23)OC1 :: 97 % of control

Measured T/C of `C(=C\c1ccnc2c1ccc1ccccc12)/c1ccccc1` : 88 % of control

For CCC1=C(C(C)OCCO)C(=O)c2ccccc2C1=O (configuration not stated) the compound record lists T/C as 94 % of control

T/C measured on CC1C2CCN(C)C1Cc1ccc(O)cc12 (configuration not stated) = 100 % of control

Per the records, this compound ( CC1(C)OC2C3CC(C2O1)C1C3C2(Cl)CC1(Cl)C(Cl)=C2Cl (configuration not stated) ) has T/C equal to 101 % of control

Documented T/C of `CCOc1cccc(/C=N/NC(=O)C(=O)Nc2ccc(Cl)c([N+](=O)[O-])c2)c1O` : 90 % of control

Lab book: T/C of `Oc1ccccc1-c1nc2c3ccccc3c3ccccc3c2[nH]1` noted as 113 % of control

Looking up CN1CCC(O)CC1=O (configuration not stated) , I found its T/C recorded as 101 % of control

Query COC(=O)C(C)(OCc1ccccc1)C(C)C1CO1 (configuration not stated) yields T/C of 113 % of control

Per the records, this compound ( CN1C(c2ccccc2)=C(C#N)C(=O)CC(c2ccccc2)N1C (configuration not stated) ) has T/C equal to 104 % of control

Entry `Cc1cc(=O)n(-c2ccc([N+](=O)[O-])cc2)c(C)c1C(=O)O` , T/C reported as 106 % of control

Entry CCCC1OCC(O)C(C(O)C(=O)CN(C)c2ccccc2)O1 (configuration not stated) ; T/C = 98 % of control

FYI, the data here is from PubChem BioAssay AID330.
